experimentalDetails: cAMP Responsive Elements (CRE) small molecule antagonists, cell-based qHTS assay (AID 1963591)
statedConditions: CRE-bla HEK293T, beta-lactamase FRET ratio; series mostly up to 92.4 µM
Records with an inconclusive call do not appear. Activity calls are given as the source filed them. Calls follow the shape of the dose curve; as a rule, active = well fitted inhibition curve with a large enough effect in the signal ratio in the repeat runs (not every such curve was filed as active); inconclusive = weak or mixed curves, or effect the other way; inactive = flat fitted curve, though single readings scatter; the % refers to the signal ratio.
Classes used: active, inactive

# compound, discreteLabel
rows = [
    ("CCOC1Oc2ccc(OS(C)(=O)=O)cc2C1(C)C (stereo not drawn)", "inactive"),
    ("CCC(C)(C)c1cc(-n2nc3ccccc3n2)c(O)c(C(C)(C)CC)c1", "inactive"),
    ("CCOC(=O)COc1ccc(Cl)cc1Cl", "inactive"),
    ("CCC(CC)(CNC(=O)CCCO)c1cccc(OC)c1", "inactive"),
    ("[Cl-].[Cl-].[Sn+2]", "inactive"),
    ("COc1cccc2c1C(=O)c1c(O)c3c(c(O)c1C2=O)C[C@@](O)(C(=O)CO)CC3OC1CC(N2CCOC(OC)C2)C(O)C(C)O1 (stereo partly drawn)", "active"),
    ("CNC(=O)Oc1cc(C)cc(C(C)C)c1", "inactive"),
    ("CCOP(=O)(Sc1ccccc1)Sc1ccccc1", "inactive"),
    ("O=C(Nc1ccccc1)Nc1cnns1", "inactive"),
    ("CCNc1nc(Cl)nc(NC(C)(C)C)n1", "inactive"),
    ("COC(=O)C(c1ccccc1)C1CCCCN1 (stereo not drawn)", "inactive"),
    ("c1ccc2c(c1)OCC(C1=NCCN1)O2 (stereo not drawn)", "inactive"),
    ("CCOP(=S)(OCC)SCCl", "inactive"),
]

###

experimentalDetails: p53 small molecule agonists, cell-based qHTS assay: qHTS cell viability counter screen (AID 1963581); also: nearly all actives have a fitted effect of over 45% in size
statedConditions: p53RE-bla HCT-116 viability, ATP luminescence, 16 h; series mostly up to 66 µM
Records with an inconclusive call do not appear. Calls of active or inactive are those of the source. Calls come from the whole dose curve.
Outcomes: 1 = active, 0 = inactive

# compound, discreteLabel
records = [
    ("COc1ccc(-c2ccccc2)cc1NNC(=O)OC(C)C", 0),
    ("Clc1ccc(C2(Cn3cncn3)CC(Br)CO2)c(Cl)c1 (centres undefined)", 0),
    ("ClC(Cl)C(Cl)Cl", 0),
    ("CC(Cc1ccc(C(C)(C)C)cc1)CN1C[C@@H](C)O[C@@H](C)C1 (some centres undefined)", 0),
    ("Cc1cc(C(C)(C)c2ccc(O)c(C)c2)ccc1O", 0),
    ("CN(C)CCc1c[nH]c2ccc(O)cc12", 0),
    ("CSCCCN=C=S", 0),
    ("CCCCCCCc1ccc(O)cc1", 0),
    ("CC1COC(Cn2cncn2)(c2ccc(Oc3ccc(Cl)cc3)cc2Cl)O1 (centres undefined)", 0),
    ("CC1CCCC1", 0),
    ("C=CCOC(=O)C(C)(C)OC(=O)c1cc(-n2c(=O)cc(C(F)(F)F)n(C)c2=O)ccc1Cl", 0),
    ("C[C@@H]1CC[C@@]2(OC1)O[C@H]1[C@@H](O)[C@H]3[C@@H]4CC[C@H]5C[C@@H](O[C@@H]6O[C@H](CO)[C@H](O[C@@H]7O[C@H](CO)[C@@H](O)[C@H](O[C@@H]8OC[C@@H](O)[C@H](O)[C@H]8O)[C@H]7O[C@@H]7O[C@H](CO)[C@@H](O)[C@H](O[C@@H]8O[C@H](CO)[C@@H](O)[C@H](O)[C@H]8O)[C@H]7O)[C@H](O)[C@H]6O)[C@H](O)C[C@]5(C)[C@H]4CC[C@]3(C)[C@H]1[C@@H]2C", 1),
    ("CCOC(=O)CCN(SN(C)C(=O)Oc1cccc2c1OC(C)(C)C2)C(C)C", 0),
    ("CCOP(=O)(OCC)O/C(=C/Cl)c1ccc(Cl)cc1Cl", 0),
    ("CC(c1ccccc1)(c1ccc(O)cc1)c1ccc(O)cc1", 0),
    ("Clc1ccc2ccccc2c1", 0),
    ("CCOc1cc(OP(=S)(OC)OC)nc(CC)n1", 0),
    ("Cc1cccc2sc3nncn3c12", 0),
    ("CCC(C)(NC(=O)c1cc(Cl)c(C)c(Cl)c1)C(=O)CCl (centres undefined)", 0),
    ("CC1(c2ccc(Oc3ccccc3)cc2)OC(=O)N(Nc2ccccc2)C1=O (centres undefined)", 0),
    ("O=C(Cl)C(Cl)(Cl)Cl", 0),
    ("CC(C)(c1ccccc1)c1ccc(O)cc1", 0),
    ("ClC1=C(Cl)[C@]2(Cl)[C@@H]3[C@@H](Cl)[C@H]4O[C@H]4[C@@H]3C1(Cl)C2(Cl)Cl", 0),
    ("Fc1ccc(C2(Cn3cncn3)OC2c2ccccc2Cl)cc1 (centres undefined)", 0),
    ("COC(=O)C1(O)c2ccccc2-c2ccccc21", 0),
    ("CC(=O)[O-].CC(=O)[O-].CC(=O)[O-].[Cr+3]", 0),
    ("Cc1ccccc1CO[C@@H]1C[C@@]2(C(C)C)CC[C@]1(C)O2", 0),
    ("O=NN1CCN(N=O)CC1", 0),
    ("CCC[N+](CCC)(CCC)CCC", 0),
    ("C[N+](C)(C)CC1CO1 (centres undefined)", 0),
    ("Cc1ccc(C)c2ccccc12", 0),
    ("Nc1cc(Cl)ccc1Cl", 0),
    ("CC(C)CCCCCCCOP(=O)(Oc1ccccc1)Oc1ccccc1", 0),
    ("CC(C(O)c1ccccc1)N(C)C/C=C/c1ccccc1 (centres undefined)", 0),
    ("CC[C@@H](CO)NC(=O)[C@@H]1C=C2c3cccc4[nH]cc(c34)C[C@H]2N(C)C1", 0),
    ("Cn1sc(Cl)cc1=O", 0),
    ("CC(C)NCC(O)c1ccc(N)c(C#N)c1 (centres undefined)", 0),
    ("CC(=O)c1cc(C(C)(C)C)cc2c1CCC2(C)C", 0),
    ("Clc1ccc(Oc2ccccc2)cc1", 0),
    ("CC(O)C#N (centres undefined)", 0),
    ("CC(=O)[O][Sn]([c]1ccccc1)([c]1ccccc1)[c]1ccccc1", 1),
    ("COC(=O)C(C)N(C(=O)c1ccco1)c1c(C)cccc1C (centres undefined)", 0),
    ("CCCCOC(=O)[C@@H](C)Oc1ccc(Oc2ccc(C#N)cc2F)cc1", 0),
    ("Cc1ncc(C[n+]2csc(CCO)c2C)c(N)n1", 0),
    ("Oc1c(Cl)c(Cl)cc(Cl)c1Cl", 0),
    ("Cc1nc(N(C)C)nc(OC(=O)N(C)C)c1C", 0),
    ("Nc1cc(Cl)ccc1O", 0),
    ("O=S(=O)(Cl)c1ccccc1", 0),
    ("CCc1cc2c(s1)-n1c(C)nnc1CN=C2c1ccccc1Cl", 0),
]
